meta.source: PubChem BioAssay (NCI)

tested on: A498 renal; assay: NCI tumour cell line growth inhibition, 48 h
measured-parameter: TGI

Worked cases, answers included:
COc1ccc(COC(=O)NNC(=O)C2CSC(c3ccccc3)N2C(C)=O)cc1 (stereo not given) | > 100 µM
CCOC(=O)[C@@]12C(C)=CC(=O)O[C@]1(C)C[C@H]2C#N | > 100 µM
Cc1cc(C)c(S(=O)(=O)N2CCN(c3cc4c(cc3F)c(=O)c(C(=O)O)cn4C3CC3)CC2)c(C)c1 | > 100 µM
CC1(SCC(N)C(=O)O)CC(=O)NC1=O (stereo not given) | > 100 µM
CC(C)=CCc1ccc2[nH]c3c(c2c1)C(=O)C(=O)C(C)=C3C(O)C(C)O (stereo not given) | 25.8 µM

input: Reported TGI for COc1cc2c3c(n(CCCNCCCNCCCn4c5c(c6cc(OC)c(OC)cc6c4=O)C(=O)c4ccccc4-5)c(=O)c2cc1OC)-c1ccccc1C3=O : what is it?
output: 59.8 µM

input: Reported TGI for Cc1ccc2nc3ccccc3c(NCc3ccccc3)c2c1 : what is it?
output: 6.9 µM

input: Reported TGI for C[C@@H]1CCC2[C@@H](C)[C@@H](OC3CCC(O)CC3)OC3O[C@@]4(C)CCC1[C@]32OO4 (stereo not given in full) : what is it?
output: > 100 µM

input: Reported TGI for CCOC(=O)C1C=C1C(C)(C)O (stereo not given) : what is it?
output: > 10 µM

input: Reported TGI for CC#C[C@@]1(O)CCCCC1O (stereo not given in full) : what is it?
output: > 100 µM
